Here the recorded IC50 is given for each entry.
# tested_system: Recombinant human KIF18A (1-467His-tagged) protein (Homo sapiens (Human), UniProt Q8NI77)
# Sequence (Q8NI77 1-467): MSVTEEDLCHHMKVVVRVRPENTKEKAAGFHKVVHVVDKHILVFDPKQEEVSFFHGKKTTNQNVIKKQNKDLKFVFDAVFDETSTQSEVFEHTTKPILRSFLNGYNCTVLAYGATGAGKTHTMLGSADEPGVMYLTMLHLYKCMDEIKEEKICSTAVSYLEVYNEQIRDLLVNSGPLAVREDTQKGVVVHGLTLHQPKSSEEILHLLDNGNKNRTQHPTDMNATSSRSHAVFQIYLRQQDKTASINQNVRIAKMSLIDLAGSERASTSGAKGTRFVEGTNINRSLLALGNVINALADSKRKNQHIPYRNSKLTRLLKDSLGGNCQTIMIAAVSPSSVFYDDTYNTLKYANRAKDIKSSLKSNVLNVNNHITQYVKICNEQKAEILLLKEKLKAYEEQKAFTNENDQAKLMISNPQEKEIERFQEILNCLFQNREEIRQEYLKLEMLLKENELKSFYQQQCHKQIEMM
# Sequence (P02550 whole entry partner): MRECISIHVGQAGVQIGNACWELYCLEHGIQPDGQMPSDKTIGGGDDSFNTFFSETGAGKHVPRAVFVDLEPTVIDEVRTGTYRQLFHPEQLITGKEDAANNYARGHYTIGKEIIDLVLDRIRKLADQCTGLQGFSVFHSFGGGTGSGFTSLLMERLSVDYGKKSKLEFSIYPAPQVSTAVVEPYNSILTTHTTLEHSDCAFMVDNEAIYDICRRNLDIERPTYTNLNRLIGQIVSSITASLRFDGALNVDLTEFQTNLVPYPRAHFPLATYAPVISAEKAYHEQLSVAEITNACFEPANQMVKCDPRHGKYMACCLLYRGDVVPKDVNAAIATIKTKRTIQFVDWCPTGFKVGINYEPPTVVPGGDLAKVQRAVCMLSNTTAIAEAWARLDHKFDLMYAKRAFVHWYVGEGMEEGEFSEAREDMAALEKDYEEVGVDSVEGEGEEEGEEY
# Sequence (P02554 whole entry partner): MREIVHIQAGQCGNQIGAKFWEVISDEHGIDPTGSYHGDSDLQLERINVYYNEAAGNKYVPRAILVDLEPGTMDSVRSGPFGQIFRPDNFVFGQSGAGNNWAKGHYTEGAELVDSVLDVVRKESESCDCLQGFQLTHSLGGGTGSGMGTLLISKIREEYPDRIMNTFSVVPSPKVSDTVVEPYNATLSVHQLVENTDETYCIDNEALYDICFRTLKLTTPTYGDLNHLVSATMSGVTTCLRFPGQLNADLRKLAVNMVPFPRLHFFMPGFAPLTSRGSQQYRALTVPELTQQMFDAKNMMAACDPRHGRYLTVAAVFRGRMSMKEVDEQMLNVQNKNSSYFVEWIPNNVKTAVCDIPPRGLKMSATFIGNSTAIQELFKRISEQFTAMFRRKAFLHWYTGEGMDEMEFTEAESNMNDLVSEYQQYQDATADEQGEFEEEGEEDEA
# assay_procedure: KIF18A enzyme assay (microtubule-stimulated ATPase activity, ADP-Glo)
# stated_conditions: 30 nM KIF18A, ATP 75 μM, read-out: inhibitory activity against KIF18A IC50

Below, each entry is followed by its recorded IC50 result.
{"molecule": "O=C(Nc1cc(N2CCC(F)(F)CC2)c2ocnc2c1)c1ccc(NS(=O)(=O)CCO)cc1N1CCC2(CC1)CC2", "tested_system": "Recombinant human KIF18A (1-467His-tagged) protein (Homo sapiens (Human), UniProt Q8NI77)", "result": "≤ 0.1 µM"}
{"molecule": "O=C(Nc1cc2c(c(OCCC(F)(F)F)n1)OCC2)c1ccc(S(=O)(=O)NCCO)cc1N1CCC2(CC1)CC2", "tested_system": "Recombinant human KIF18A (1-467His-tagged) protein (Homo sapiens (Human), UniProt Q8NI77)", "result": "≤ 0.1 µM"}
{"molecule": "CC(C)(CO)Nc1nc(C(=O)Nc2ccc(S(=O)(=O)NCCO)cc2N2CCC3(CC2)CC3)cc2c1OCC2", "tested_system": "Recombinant human KIF18A (1-467His-tagged) protein (Homo sapiens (Human), UniProt Q8NI77)", "result": "≤ 0.1 µM"}
{"molecule": "C[C@H](CO)S(=O)(=O)Nc1ccc(NC(=O)c2cc3c(c(N4CCC(F)(F)CC4)c2)N(C)CC3)c(N2CCC3(CC2)CC3)c1", "tested_system": "Recombinant human KIF18A (1-467His-tagged) protein (Homo sapiens (Human), UniProt Q8NI77)", "result": "≤ 0.1 µM"}
{"molecule": "C[C@H](CO)NS(=O)(=O)c1ccc(C(=O)Nc2cc3ccoc3c(N3CCO[C@H](C)C3)n2)c(N2CCC3(CC2)CC3)c1", "tested_system": "Recombinant human KIF18A (1-467His-tagged) protein (Homo sapiens (Human), UniProt Q8NI77)", "result": "≤ 0.1 µM"}
{"molecule": "C[C@@H]1CN(c2nc(NC(=O)c3ccc(NS(=O)(=O)[C@H](C)CO)cc3N3CCC4(CC3)CC4)cc3ccoc23)CCO1", "tested_system": "Recombinant human KIF18A (1-467His-tagged) protein (Homo sapiens (Human), UniProt Q8NI77)", "result": "≤ 0.1 µM"}
{"molecule": "CN1CCc2cc(C(=O)Nc3ccc(S(=O)(=O)NCCO)cc3N3CCC4(CC3)CC4)cc(N3CCOCC3)c21", "tested_system": "Recombinant human KIF18A (1-467His-tagged) protein (Homo sapiens (Human), UniProt Q8NI77)", "result": "≤ 0.1 µM"}
{"molecule": "O=C(Nc1cc2c(c(OC3CCC3)c1)OCC2)c1ccc(S(=O)(=O)NCCO)cc1N1CCC2(CC1)CC2", "tested_system": "Recombinant human KIF18A (1-467His-tagged) protein (Homo sapiens (Human), UniProt Q8NI77)", "result": "≤ 0.1 µM"}
{"molecule": "CN1CCc2cc(NC(=O)c3ccc(NS(=O)(=O)CCO)cc3N3CCC4(CC3)CC4)nc(N3CCC(C)(F)C3)c21 (stereo not drawn)", "tested_system": "Recombinant human KIF18A (1-467His-tagged) protein (Homo sapiens (Human), UniProt Q8NI77)", "result": "≤ 0.1 µM"}
{"molecule": "O=C(Nc1ccc(NS(=O)(=O)CCO)cc1N1CCC2(CC1)CC2)c1cc2c(c(N3CCC4(CC4)C3)n1)OCC2", "tested_system": "Recombinant human KIF18A (1-467His-tagged) protein (Homo sapiens (Human), UniProt Q8NI77)", "result": "≤ 0.1 µM"}

# input molecule: O=C(Nc1ccc(S(=O)(=O)NCCO)cc1N1CCC2(CC1)CC2)c1cc2c(c(OC3CCC3)n1)OCC2 ; wanted: its IC50
≤ 0.1 µM

Fill blank: measured IC50 of the molecule Cn1ccc2cc(NC(=O)c3ccc(NS(=O)(=O)CCO)cc3N3CCC4(CC3)CC4)nc(NC(C)(C)CO)c21 is ____.
≤ 0.1 µM

Entry C[C@H]1CN(c2nc(C(=O)Nc3ccc(S(=O)(=O)NCCO)cc3N3CCC4(CC3)CC4)cc3c2OCC3)CCO1 : reported IC50 = ?
≤ 0.1 µM
